These data points were gathered from ChEMBL document CHEMBL2424641.

# experimental_system: Orexin receptor type 2 (Homo sapiens)
# Sequence (O43614 whole entry): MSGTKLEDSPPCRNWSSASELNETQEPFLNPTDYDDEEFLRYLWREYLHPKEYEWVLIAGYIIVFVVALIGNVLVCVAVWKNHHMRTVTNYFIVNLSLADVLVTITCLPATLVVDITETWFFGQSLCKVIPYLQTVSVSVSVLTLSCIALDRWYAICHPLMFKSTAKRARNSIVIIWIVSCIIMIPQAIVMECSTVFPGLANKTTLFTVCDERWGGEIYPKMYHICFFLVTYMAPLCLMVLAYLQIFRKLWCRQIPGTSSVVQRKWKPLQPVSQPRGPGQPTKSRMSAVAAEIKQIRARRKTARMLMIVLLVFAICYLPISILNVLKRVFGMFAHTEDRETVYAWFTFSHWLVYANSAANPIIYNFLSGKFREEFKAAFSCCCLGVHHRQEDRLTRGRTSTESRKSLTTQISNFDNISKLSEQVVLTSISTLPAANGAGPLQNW
pKi: −log10 of the molar value.
# pKi per record follows
experimental_readout: pKi

INSERT INTO assay_data (chemical_smiles, value_measured) VALUES
  ('Cc1ncc(OC[C@@]2(c3cccc(F)c3)C[C@H]2C(=O)Nc2ccc(C#N)cn2)c(C)n1', 8.30),
  ('COCc1nc(C)ncc1OC[C@@]1(c2ccccc2)C[C@H]1C(=O)Nc1ccc(F)cn1', 9.00),
  ('COc1nc(NC(=O)[C@@H]2C[C@@]2(COc2cnc(C)nc2C)c2cccc(F)c2)ccc1F', 8.70),
  ('COCc1nc(C)ncc1OC[C@@]1(c2cccc(F)c2)C[C@H]1C(=O)Nc1ccc(F)cn1', 9.00),
  ('COc1ccc([C@]2(COc3cnc(C)nc3C)C[C@H]2C(=O)Nc2ccc(F)cn2)cc1F', 8.15),
  ('COc1cc(NC(=O)[C@@H]2C[C@@]2(COc2cnc(C)nc2C)c2cccc(F)c2)ncc1F', 8.70);
